System: DeltatarO mutant
Assay: S. aureus survival, RN4220 and DeltatarO strains – OD600, teichoic acid synthesis inhibitors, primary screen (AID 463173)
Conditions: S. aureus RN4220 wild type/DeltatarO growth, OD600, 18 h, hits give low values, screened at 18.75 µg/mL (by protocol)
The whole screen tested about 52,000 compounds, of which about 4,300 (8.3%) were called active. What follows is part of a selection rich in actives, with near analogues and random picks from the rest.
# note: exactly 70% is not below, so it is not fulfilled; use fulfilled for survival strictly under it

- molecule: "Cc1ccc(NC(=O)c2cc(-c3cccs3)nc3ccccc23)c(C)c1"
  class label: "fulfilled"

Ask | Just wondering, is survival of CC1CCN(CC(=O)O)CC1 below 70%?
Reply | not fulfilled

Ask | Now give it for COc1ccc(-n2nc3ccc(NC(=O)COc4ccc(C)c(C)c4)cc3n2)cc1 too.
Reply | fulfilled

Ask | Also, Cn1c(SCC(N)=O)nc2c([nH]c3ccccc32)c1=O please.
Reply | not fulfilled

Ask | Now the same for COc1ccc(OC)c(NC(=O)c2c(NCc3cccs3)sc3c2CCCCC3)c1
Reply | fulfilled

Ask | Next record, please: CCC(C)NC(=O)c1cc2cc(S(=O)(=O)N3CCCCC3)ccc2n1C (stereo not given)
Reply | fulfilled

Ask | Now the same for Cc1ccccc1NC(=O)c1sc2nc(-c3ccncc3)ccc2c1N
Reply | fulfilled

Ask | Next record, please: O=C(Cn1c(=O)n(-c2cccc(Cl)c2)c(=O)c2sc3ccccc3c21)NC1CCCCC1
Reply | not fulfilled

Ask | Repeat with O=C(NC1CCN(C(=O)NC2CCCCC2)CC1)c1ccc(F)cc1
Reply | not fulfilled

Ask | Try the molecule Cc1cccc(OCC(=O)Nc2ccc3c(c2)N(C)C(=O)c2ccccc2S3)c1
Reply | not fulfilled

Ask | Now try CCCN(Cc1cccs1)C(=O)Nc1ccc(F)c(Cl)c1 .
Reply | fulfilled

Ask | Okay, and Cc1cc(C)cc(OCC(=O)Nc2cccc(-c3nc4ccccc4[nH]3)c2)c1 ?
Reply | fulfilled
